Experiment: Clearance in Sprague-Dawley rat at 2 mg/kg, iv
Format: ADME, organism-based
Set-up: dose 2 mg/kg, route intravenous
Settings: in vivo
MEASURED METRIC: clearance
Please make sure the unit comes right after the number.

Input: If you can, please state the reported clearance value of COc1ccccc1-n1nc(C2CCN(S(C)(=O)=O)CC2)cc1-c1ccc(Cl)cc1 .
Output: 26 mL/min/kg

* * *

Test: Metabolic stability in rat liver microsomes assessed as compound remaining after 10 mins
Type: ADME, Microsome
Conditions: liver microsomes, read-out: Stability
Each record here notes measured remaining at 10 min.
Write the answer as a number in %, unit excluded.

Some solved cases for reference:
CCS(=O)(=O)N1CCC(c2cc(-c3ccc(Cl)cc3)n(-c3ccccc3OC)n2)CC1	22
COc1ccccc1-n1nc(C2CCN(S(=O)(=O)C(C)C)CC2)cc1-c1ccc(Cl)cc1	19
COc1ccccc1-n1nc(C2CCN(S(=O)(=O)CC(F)(F)F)CC2)cc1-c1ccc(Cl)cc1	33
COc1ccccc1-n1nc(C2CCN(C(C)=O)CC2)cc1-c1ccc(Cl)cc1	7

Input: Dear colleague, I am looking for the recorded remaining at 10 min of the following molecule: COc1ccccc1-n1nc(C2CCN(S(C)(=O)=O)CC2)cc1-c1ccc(Cl)cc1
Output: 45

* * *

Assay: Cmax in Sprague-Dawley rat at 10 mg/kg, po
Type: ADME, organism-based
Set-up: dose 10 mg/kg, route oral
Conditions: in vivo
MEASURED METRIC: Cmax (nM)
Give the number; nM is assumed, so skip it.

Input: Reported Cmax, molecule COc1ccccc1-n1nc(C2CCN(S(C)(=O)=O)CC2)cc1-c1ccc(Cl)cc1 : ____
Output: 1500

* * *

Assay: Oral bioavailability in Sprague-Dawley rat at 10 mg/kg
Assay type: ADME, organism-based
Settings: in vivo
MEASURED METRIC: bioavailability
Please make sure the unit comes right after the number.

Input: bioavailability for COc1ccccc1-n1nc(C2CCN(S(C)(=O)=O)CC2)cc1-c1ccc(Cl)cc1 ?
Output: 42.5%

* * *

Test: Inhibition of N-type calcium channel alpha1B/alpha2delta-1/beta1b assessed as inhibition of KCl-induced calcium mobilization by FDSS
pIC50: −log10 of the molar value.
Think of 7 as a floor: if pIC50 stands on it or above, it is criterion met; beneath it, criterion not met.

Example results:
COc1ccccc1-n1nc(C2CCN(S(C)(=O)=O)CC2)cc1-c1ccc(C#N)cc1	criterion not met
OCCCc1cc(-c2ccc(Cl)cc2)n(-c2ccccc2)n1	criterion not met
COc1ccccc1-n1nc(C2CCN(C(C)=O)CC2)cc1-c1ccc(Cl)cc1	criterion met
COc1ccccc1-n1nc(C2CCN(S(C)(=O)=O)CC2)cc1C1=CCC(C)(C)CC1	criterion met
COc1ccccc1-n1nc(C2CCN(S(C)(=O)=O)CC2)cc1-c1ccc(Cl)cc1	criterion met

Input: Check the entry COc1ccccc1-n1nc(C2CCN(S(C)(=O)=O)CC2)cc1-c1ccc(OC(C)C)cc1 : does pIC50 equal or exceed 7?
Output: criterion not met

Input: Can COc1ccccc1-n1nc(C2CCN(S(C)(=O)=O)CC2)cc1-c1cc2ccccc2o1 be said to have pIC50 at or above 7?
Output: criterion not met

Input: Quick check: does COc1ccccc1-n1nc(C2CCN(S(=O)(=O)CC(F)(F)F)CC2)cc1-c1ccc(Cl)cc1 have pIC50 greater than or equal to 7?
Output: criterion met

Input: Is pIC50 at least 7? Consider COc1ccccc1-n1nc(C2CCN(S(=O)(=O)C(F)(F)F)CC2)cc1-c1ccc(Cl)cc1
Output: criterion met

Input: Does the reported pIC50 for CCS(=O)(=O)N1CCC(c2cc(-c3ccc(Cl)cc3)n(-c3ccccc3OC)n2)CC1 fall at or above the 7 mark?
Output: criterion met

Input: In plain terms: is recorded pIC50 at least 7 for COc1ccccc1-n1nc(C2CCN(S(=O)(=O)N(C)C)CC2)cc1-c1ccc(Cl)cc1 ?
Output: criterion met

Input: Does COc1c(Cl)cccc1-n1nc(C2CCN(S(C)(=O)=O)CC2)cc1-c1ccc(Cl)cc1 have a reported pIC50 of at least 7?
Output: criterion not met

Input: Please indicate if the recorded pIC50 for CNc1ccc(-c2cc(C3CCN(S(C)(=O)=O)CC3)nn2-c2ccccc2OC)cc1 meets or exceeds 7.
Output: criterion not met
